Origin of the recorded values: patent EP1021178B1

System: NCI-H226
PROCEDURE_TEXT: NCI human tumor cell panel
CONDITION_LABEL: NCI-H226, read-out: Log10 LC50 (converted)
Label 1 (yes) when CC50 < 1 µM; otherwise 0 (no).

Input: is_below(CC50, 1 µM) for `OCc1ccc(-c2ccc(-c3ccc(CO)[se]3)[se]2)[se]1` ?
Output: 0 (no)

Input: is_below(CC50, 1 µM) for `OCc1ccc(-c2ccc(-c3ccc[se]3)s2)[se]1` ?
Output: 1 (yes)

Input: is_below(CC50, 1 µM) for `O=Cc1ccc(-c2ccc(-c3ccc[se]3)[se]2)[se]1` ?
Output: 0 (no)

Input: is_below(CC50, 1 µM) for `OCc1ccc(-c2ccc(-c3cccs3)[se]2)s1` ?
Output: 1 (yes)

Input: is_below(CC50, 1 µM) for `O=Cc1ccc(-c2ccc(-c3ccc(C=O)[se]3)s2)[se]1` ?
Output: 0 (no)

Input: is_below(CC50, 1 µM) for `OCc1ccc(-c2ccc(-c3ccc(CO)[se]3)s2)[se]1` ?
Output: 0 (no)

Input: is_below(CC50, 1 µM) for `O=Cc1ccc(-c2ccc(-c3ccc(C=O)[se]3)s2)s1` ?
Output: 0 (no)

Input: is_below(CC50, 1 µM) for `O=Cc1ccc(-c2ccc(-c3ccc(C=O)s3)[se]2)s1` ?
Output: 0 (no)

Input: is_below(CC50, 1 µM) for `OCc1ccc(-c2ccc(-c3ccc(CO)s3)[se]2)s1` ?
Output: 0 (no)

Input: is_below(CC50, 1 µM) for `O=Cc1ccc(-c2ccc(-c3ccc(C=O)[se]3)[se]2)[se]1` ?
Output: 0 (no)

Input: is_below(CC50, 1 µM) for `O=Cc1ccc(-c2ccc(-c3cccs3)[se]2)s1` ?
Output: 0 (no)
